Attribution: patent US20250297004A1

# experimental-system: T1, human Nectin-4 (Homo sapiens, UniProt Q96NY8)
# T1 sequence (Q96NY8 32-510): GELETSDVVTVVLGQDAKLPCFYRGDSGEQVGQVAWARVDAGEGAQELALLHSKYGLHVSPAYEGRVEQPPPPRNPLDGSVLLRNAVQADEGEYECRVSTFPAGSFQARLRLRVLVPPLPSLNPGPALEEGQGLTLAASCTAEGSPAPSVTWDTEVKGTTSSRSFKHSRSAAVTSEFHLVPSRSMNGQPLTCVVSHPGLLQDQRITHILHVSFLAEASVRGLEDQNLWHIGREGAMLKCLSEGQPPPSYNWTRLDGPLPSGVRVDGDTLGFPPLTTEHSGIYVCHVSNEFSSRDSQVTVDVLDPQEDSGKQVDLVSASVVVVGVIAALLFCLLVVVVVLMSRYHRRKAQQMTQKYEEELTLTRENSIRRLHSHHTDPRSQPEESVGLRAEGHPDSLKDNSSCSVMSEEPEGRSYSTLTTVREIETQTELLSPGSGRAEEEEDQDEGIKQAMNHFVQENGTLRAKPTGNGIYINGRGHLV
# method: Binding to human Nectin-4 by SPR
# condition-set: SPR dissociation constant; second set (Table 7)
readout-name: kd (s⁻¹)
One number for each entry, in s⁻¹.

molecule	readout-name	unit-descriptor	recorded-value
H7L2 (antibody, human IgG1, V domains shown, human IgG1 isotype) VH: QVQLVQSGAEVKKPGASVKVSCKASGYIFTSYWMHWVKQRPGQGLEWIGEIDPSDSYTNYNQKFKGRVTLTLDKSTSTTYMELSSLRSEDTAVYYCARGYGNYGDYWGQGTLVTVSS VL: DVVMTQSPLSNPVTPGEPASISCRSSKSLLHSNGITYLYWYLQKPGQSPQLLIYQMSNLASGVPDRFSSSGSGTDFTLKISRVEAEDVGVYYCAQNLELPWTFGGGTKVEIK	kd	s⁻¹	0.0063

For H5L1 (antibody, human IgG1, V domains shown, human IgG1 isotype) VH: QVQLVQSGAEVKKPGASVKVSCKASGYIFTSYWMHWVKQRPGQGLEWMGEIDPSDSYTNYNQKFKGRVTMTLDKSTSTTYMELSSLRSEDTAVYYCARGYGNYGDYWGQGTLVTVSS VL: DVVMTQSPLSLPVTPGEPASISCRSSKSLLHSNGITYLYWYLQKPGQSPQLLIYQMSNLASGVPDRFSSSGSGTDFTLKISRVEAEDVGVYYCAQNLELPWTFGGGTKVEIK , what is its reported kd?
0.0056
